Where these numbers come from: patent US9051339B2

EC50 for assorted molecules
biological target: GABAB receptor (Mus musculus, UniProt Q80T41+Q9WV18); construct: a mouse brain cortex membrane (4 μg); tissue Japan SLC, Inc. (ddY mice); experiment: [35S]GTPγS binding test for PAM action, mouse brain cortical membrane; details: concentration raising reaction rate from 20% with 0.3 μM GABA to 50%; 100 μM GABA = 100%; mouse brain cortex membrane; read-out: Potency (PAM Potency of GABAB)
Sequence (Q9WV18 20-960): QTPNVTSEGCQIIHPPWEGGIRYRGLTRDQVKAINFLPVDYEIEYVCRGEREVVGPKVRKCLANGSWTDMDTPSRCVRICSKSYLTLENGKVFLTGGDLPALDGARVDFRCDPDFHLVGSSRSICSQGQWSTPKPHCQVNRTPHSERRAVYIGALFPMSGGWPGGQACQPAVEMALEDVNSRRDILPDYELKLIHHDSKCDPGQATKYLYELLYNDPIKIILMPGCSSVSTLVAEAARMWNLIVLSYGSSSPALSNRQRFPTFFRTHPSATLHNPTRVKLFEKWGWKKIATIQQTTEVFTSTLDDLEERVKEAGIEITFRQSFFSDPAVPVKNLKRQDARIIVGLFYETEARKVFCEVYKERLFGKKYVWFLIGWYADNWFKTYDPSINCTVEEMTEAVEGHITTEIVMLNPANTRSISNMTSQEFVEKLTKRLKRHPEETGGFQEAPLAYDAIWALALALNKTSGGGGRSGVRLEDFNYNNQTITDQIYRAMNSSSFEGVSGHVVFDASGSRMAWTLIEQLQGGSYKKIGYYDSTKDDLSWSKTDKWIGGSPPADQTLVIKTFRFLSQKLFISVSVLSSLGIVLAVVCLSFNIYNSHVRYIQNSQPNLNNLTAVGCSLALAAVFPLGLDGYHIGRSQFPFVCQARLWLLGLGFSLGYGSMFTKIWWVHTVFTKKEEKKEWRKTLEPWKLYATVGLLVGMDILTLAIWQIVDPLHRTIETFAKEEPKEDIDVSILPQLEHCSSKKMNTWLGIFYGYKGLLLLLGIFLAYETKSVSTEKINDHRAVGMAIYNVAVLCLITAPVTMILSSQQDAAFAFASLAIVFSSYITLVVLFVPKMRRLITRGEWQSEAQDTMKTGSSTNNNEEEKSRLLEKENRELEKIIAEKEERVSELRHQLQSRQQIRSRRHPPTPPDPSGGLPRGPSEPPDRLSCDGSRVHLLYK
Sequence (Q80T41 41-940): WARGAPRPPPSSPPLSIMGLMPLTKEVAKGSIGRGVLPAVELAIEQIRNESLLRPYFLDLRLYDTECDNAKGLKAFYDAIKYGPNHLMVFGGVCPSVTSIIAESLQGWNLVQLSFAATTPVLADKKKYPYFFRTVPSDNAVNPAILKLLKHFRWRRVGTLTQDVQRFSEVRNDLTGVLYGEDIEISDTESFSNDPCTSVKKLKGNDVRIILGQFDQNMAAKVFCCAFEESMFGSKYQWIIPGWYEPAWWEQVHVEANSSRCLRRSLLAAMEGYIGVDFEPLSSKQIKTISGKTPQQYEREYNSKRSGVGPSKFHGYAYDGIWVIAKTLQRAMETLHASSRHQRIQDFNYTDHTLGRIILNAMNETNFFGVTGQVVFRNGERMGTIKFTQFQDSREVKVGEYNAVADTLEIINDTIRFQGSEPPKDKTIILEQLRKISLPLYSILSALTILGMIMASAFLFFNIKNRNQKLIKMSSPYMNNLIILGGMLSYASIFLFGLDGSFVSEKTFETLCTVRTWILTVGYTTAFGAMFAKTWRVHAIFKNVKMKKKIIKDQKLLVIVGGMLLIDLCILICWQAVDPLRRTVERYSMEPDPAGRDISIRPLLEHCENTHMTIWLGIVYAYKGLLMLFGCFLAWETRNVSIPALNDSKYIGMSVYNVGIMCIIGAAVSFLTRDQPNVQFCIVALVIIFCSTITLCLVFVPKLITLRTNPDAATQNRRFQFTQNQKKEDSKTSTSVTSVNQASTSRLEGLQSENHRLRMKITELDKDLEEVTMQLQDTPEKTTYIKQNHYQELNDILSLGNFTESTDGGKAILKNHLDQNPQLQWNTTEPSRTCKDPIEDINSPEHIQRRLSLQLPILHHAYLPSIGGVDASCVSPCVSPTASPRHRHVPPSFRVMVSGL

smilesEntry	EC50 [µM]
Cc1nc(CN2CCC(O)(CO)CC2)c2cc(C3CCC(C)(C)CC3)sc2n1	0.2
Cc1nc(CN2CC[C@@H](O)[C@](C)(O)C2)c2cc(C3CCC(C)(C)CC3)sc2n1	0.079
Cc1nc(CN2CCN(C)CC2(C)C)c2cc(C3CCC(C)(C)CC3)sc2n1	0.12
